Origin of the recorded values: ChEMBL document CHEMBL4321868

Assay: Selectivity index, ratio of CC50 for human MT4 cells to EC50 for HIV-1 NL4.3 infected in human MT4 cells
quantity-measured: selectivity ratio

O=C(CCC(CCC(=O)NC(Cc1cn(Cc2ccc(C(=O)O)cc2)c2ccccc12)C(=O)O)(CCC(=O)NC(Cc1cn(Cc2ccc(C(=O)O)cc2)c2ccccc12)C(=O)O)[N+](=O)[O-])NC(Cc1cn(Cc2ccc(C(=O)O)cc2)c2ccccc12)C(=O)O (configuration not stated) ... > 2.4

Kindly consider the entry below.
Recorded result, O=C(CCOCC(COCCC(=O)NC(Cc1c(-c2ccc(C(=O)O)cc2)[nH]c2ccccc12)C(=O)O)(COCCC(=O)NC(Cc1c(-c2ccc(C(=O)O)cc2)[nH]c2ccccc12)C(=O)O)COCCC(=O)NC(Cc1c(-c2ccc(C(=O)O)cc2)[nH]c2ccccc12)C(=O)O)NC(Cc1c(-c2ccc(C(=O)O)cc2)[nH]c2ccccc12)C(=O)O (configuration not stated) , selectivity ratio: > 137
